Reported values: Viability for P388, one per item.
Respond with the bare value in %.

### Prompt Tell me its Viability given "C=CCNc1nc(NCC=C)nc(N2CCC(NCC(c3ccc(F)cc3)c3ccc(F)cc3)CC2)n1" as the entry.
### Response 93

### Prompt Name the recorded Viability of the item C=CCNc1nc(N2CCC(NCC3c4ccccc4N(CCC)S(=O)(=O)c4ccccc43)CC2)nc2c1ncn2CC=C (configuration not stated) in your answer.
### Response 96

### Prompt # return recorded Viability for input C=CCNc1nc(N2CCC(NC3c4ccccc4N(C)S(=O)(=O)c4cc(Cl)ccc43)CC2)nc2c1ncn2CC=C (stereo in doubt; 11)
### Response 146

### Prompt Please give the documented Viability of "C=CCNc1nc(N2CCC(NCC3c4ccccc4C=Cc4ccccc43)CC2)nc2c1ncn2CC=C"
### Response 111

### Prompt Identify measured Viability associated with C=CCNc1nc(N2CCC(NCC3c4ccccc4NC(=O)c4ccccc43)CC2)nc2c1ncn2CC=C (configuration not stated)
### Response 106

### Prompt Return Viability for the following molecule: C=CCNc1nc(N2CCC(NCC3c4ccccc4COc4ccccc43)CC2)c2ncn(CC=C)c2n1 (configuration not stated)
### Response 91

### Prompt Quick one: give measured Viability for C=CCNc1nc(N2CCC(NCC3c4ccccc4N(C)S(=O)(=O)c4cc(Cl)ccc43)CC2)c2ncn(CC=C)c2n1 (configuration not stated)
### Response 89
